Listing of recorded normalized growth by entry.
assay: chemical genetic growth profiling, strain panel (AID 1159580);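 note: tested at 20 µM; growth read once vehicle control cultures reached saturation at 30 °C; 1 = growth at the plate median or of vehicle wells; lower values mean less growth of the strain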; settings: S. cerevisiae deletion strains, growth OD, locus YPL051W, strain arl3, stronger effect = lower value
Among all 5,500 compounds or so, about 2,000 (36%) were called active. Roughly 18% stayed inconclusive and do not appear here. Some of the results follow.
property.label: normalized growth

compound=NC1=NCCN1CC(=O)O property_label="normalized growth" obs_value=0.997
compound=COC(=O)c1c(OC)cc2c(c1C)Oc1c(Cl)c(O)c(Cl)c(C)c1C(=O)O2 property_label="normalized growth" obs_value=0.98
compound=CC(C)(C)NC[C@H](O)c1ccc(O)c(CO)c1 property_label="normalized growth" obs_value=1.02
compound="CC(CCc1ccccc1)NCC(O)c1ccc(O)c(C(N)=O)c1 (stereo not given)" property_label="normalized growth" obs_value=1
compound=C=C1C[C@]23C[C@@]1(O)CC[C@H]2[C@@]12C=C[C@H](O)[C@@](C)(C(=O)O1)[C@H]2[C@@H]3C(=O)O property_label="normalized growth" obs_value=0.992
compound="O=P1(N(CCCl)CCCl)NCCCO1 (stereo not given)" property_label="normalized growth" obs_value=1.02
compound="CC(C)(C)NCC(O)c1ccc(O)c(CO)c1 (stereo not given)" property_label="normalized growth" obs_value=1.01
compound="CC(=O)O[C@H]1CCC2(C)C3=C(CCC2C1(C)C)[C@]1(C)CCC(C(C)CCC=C(C)C)[C@@]1(C)CC3 (stereo not given in full)" property_label="normalized growth" obs_value=0.989
compound="CC(C)=CC1C(C(=O)O)C1(C)C (stereo not given)" property_label="normalized growth" obs_value=1
compound=OC[C@H]1O[C@@](CO)(O[C@@H]2O[C@H](CO)[C@@H](O)[C@H](O)[C@H]2O)[C@@H](O[C@@H]2O[C@H](CO)[C@@H](O)[C@H](O)[C@H]2O)[C@@H]1O property_label="normalized growth" obs_value=1.01
compound=CC(C)=CCc1c2c(c3occ(-c4ccc(O)cc4)c(=O)c3c1O)C=CC(C)(C)O2 property_label="normalized growth" obs_value=0.658
compound="Cc1c(C)c2c(c(C)c1O)CCC(C)(CCCC(C)CCCC(C)CCCC(C)C)O2 (stereo not given)" property_label="normalized growth" obs_value=1.01
compound=CN(C)[C@@H]1C(=O)C(C(N)=O)=C(O)[C@@]2(O)C(=O)C3=C(O)c4c(O)cccc4[C@@](C)(O)[C@H]3[C@H](O)[C@@H]12 property_label="normalized growth" obs_value=0.995
compound="CC12CCC3C(CC3(C)C)C(C)(CCC1=O)O2 (stereo not given)" property_label="normalized growth" obs_value=1
compound=CNCCCC12CCC(c3ccccc31)c1ccccc12 property_label="normalized growth" obs_value=0.938
compound="COc1ccc(C2Sc3ccccc3N(CCN(C)C)C(=O)C2OC(C)=O)cc1 (stereo not given)" property_label="normalized growth" obs_value=0.977
compound=Cc1scc2c1N(C(=O)CN1CCN(C)CC1)c1ccccc1NC2=O property_label="normalized growth" obs_value=0.985
compound=CS(=O)(=O)Nc1ccc([N+](=O)[O-])cc1Oc1ccccc1 property_label="normalized growth" obs_value=0.993
compound=CN(C)[C@@H]1C(=O)C(C(N)=O)=C(O)[C@@]2(O)C(=O)C3=C(O)c4c(O)ccc(Cl)c4[C@@](C)(O)[C@H]3C[C@@H]12 property_label="normalized growth" obs_value=0.984
compound=CN(C)CCCN1c2ccccc2Sc2ccc(C(F)(F)F)cc21 property_label="normalized growth" obs_value=0.966
compound="CC(=O)O[C@H]1CCC2(C)C3=C(CCC2C1(C)C)[C@@]1(C)CC[C@@H](C(C)CCC=C(C)C)[C@]1(C)CC3 (stereo not given in full)" property_label="normalized growth" obs_value=1.01
compound="CC1(C)CC2C1CC[C@]1(C)CCC3C(C(=O)O)CC(=O)O[C@@]32C1 (stereo not given in full)" property_label="normalized growth" obs_value=1.03
compound=CCOC(=O)NNc1nncc2ccccc12 property_label="normalized growth" obs_value=1.02
compound=CS(=O)(=O)c1ccc([C@@H](O)[C@@H](CO)NC(=O)C(Cl)Cl)cc1 property_label="normalized growth" obs_value=1.02
compound="O=P1(NCCCl)OCCCN1CCCl (stereo not given)" property_label="normalized growth" obs_value=0.999
compound=CC(C)=CCc1c2c(c3occ(-c4ccc(O)c(O)c4)c(=O)c3c1O)C=CC(C)(C)O2 property_label="normalized growth" obs_value=0.913
compound=CN(C)CCCN1c2ccccc2Sc2ccc(Cl)cc21 property_label="normalized growth" obs_value=0.229
compound=C=C1c2c(Cl)ccc(O)c2C(O)=C2C(=O)[C@]3(O)C(O)=C(C(N)=O)C(=O)[C@@H](N(C)C)[C@@H]3[C@@H](O)[C@H]12 property_label="normalized growth" obs_value=0.973
compound=Cc1cc(=O)oc2cc(O)cc(O)c12 property_label="normalized growth" obs_value=0.982
compound=CC(=O)N[C@@H](Cc1c[nH]c2ccccc12)C(N)=O property_label="normalized growth" obs_value=1.02
compound=CN(C)[C@@H]1C(=O)C(C(=O)NCN2CCCC2)=C(O)[C@@]2(O)C(=O)C3=C(O)c4c(O)cccc4[C@@](C)(O)[C@H]3C[C@@H]12 property_label="normalized growth" obs_value=0.949
compound=CC(=O)Oc1cccc(O)c1 property_label="normalized growth" obs_value=1.04
compound="CC(C)=CCCC(C)[C@@H]1CC[C@]2(C)C3=C(CC[C@@]12C)C1(C)CC[C@H](O)C(C)(C)C1CC3 (stereo not given in full)" property_label="normalized growth" obs_value=1.02
compound=CNNC property_label="normalized growth" obs_value=1
compound=Cc1nc(N)cc(C[n+]2csc(CCO)c2C)n1 property_label="normalized growth" obs_value=0.996
